assay: chemical genetic growth profiling, strain panel (AID 1159580);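 note: tested at 20 µM; growth read once vehicle control cultures reached saturation at 30 °C; 1 = growth at the plate median or of vehicle wells; lower values mean less growth of the strain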; conditions: S. cerevisiae deletion strains, growth OD, locus YEL061C, strain CIN8 (second series), stronger effect = lower value
Screen size: about 5,500 compounds; about 2,000 (36%) were called active. Not shown: some 18% with an inconclusive outcome. This is one part of the list.
normalized growth reference
Experimental endpoint: normalized growth

compound=C=C(C)[C@H]1CC=C(C(=O)O)CC1 experimental_endpoint="normalized growth" result="0.991 (inactive)"
compound=N[C@@H](Cc1ccc(O)c(O)c1)C(=O)O experimental_endpoint="normalized growth" result="0.999 (inactive)"
compound=O=C(NC(=O)c1c(F)cccc1F)Nc1ccc(Cl)cc1 experimental_endpoint="normalized growth" result="1.01 (inactive)"
compound=O=C(O)C1=CCNCC1 experimental_endpoint="normalized growth" result="1.01 (inactive)"
compound="CCCC1O[C@@H]2CC3C4CCC5=CC(=O)C=CC5(C)C4[C@@H](O)CC3(C)[C@]2(C(=O)CO)O1 (stereo not given in full)" experimental_endpoint="normalized growth" result="1.02 (inactive)"
compound="CCCC(C)C1(CC)C(=O)NC(=O)NC1=O (stereo not given)" experimental_endpoint="normalized growth" result="1 (inactive)"
compound="CCCC(C)C1(CC)C(=O)N=C(S)NC1=O (stereo not given)" experimental_endpoint="normalized growth" result="0.997 (inactive)"
compound=C/C=C/c1ccc2c(c1)OCO2 experimental_endpoint="normalized growth" result="1.01 (inactive)"
compound=C[C@H](N)[C@H](O)c1ccc(O)c(O)c1 experimental_endpoint="normalized growth" result="1.01 (inactive)"
compound=COC(C)(C)CCC[C@H](C)C/C=C/C(C)=C/C(=O)OC(C)C experimental_endpoint="normalized growth" result="1.02 (inactive)"
